TARGET_OF_ASSAY: OR8/OR7 (Anopheles gambiae, UniProt Q7PUT5+Q7QCC7)
Sequence (Q7QCC7 whole entry): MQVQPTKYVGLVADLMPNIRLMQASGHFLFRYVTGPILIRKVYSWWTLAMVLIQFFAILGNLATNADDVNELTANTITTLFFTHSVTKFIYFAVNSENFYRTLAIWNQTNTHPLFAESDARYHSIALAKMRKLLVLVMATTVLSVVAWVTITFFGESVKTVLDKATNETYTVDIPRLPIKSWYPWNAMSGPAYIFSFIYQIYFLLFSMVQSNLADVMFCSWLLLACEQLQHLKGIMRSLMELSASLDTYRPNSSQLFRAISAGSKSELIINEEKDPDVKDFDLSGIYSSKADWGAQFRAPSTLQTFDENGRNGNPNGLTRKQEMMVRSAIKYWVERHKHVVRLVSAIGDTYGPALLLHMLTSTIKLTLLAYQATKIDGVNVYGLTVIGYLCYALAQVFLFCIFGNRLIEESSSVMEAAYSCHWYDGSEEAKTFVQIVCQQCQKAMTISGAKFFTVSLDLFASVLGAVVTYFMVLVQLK
Sequence (Q7PUT5 entry or part of it): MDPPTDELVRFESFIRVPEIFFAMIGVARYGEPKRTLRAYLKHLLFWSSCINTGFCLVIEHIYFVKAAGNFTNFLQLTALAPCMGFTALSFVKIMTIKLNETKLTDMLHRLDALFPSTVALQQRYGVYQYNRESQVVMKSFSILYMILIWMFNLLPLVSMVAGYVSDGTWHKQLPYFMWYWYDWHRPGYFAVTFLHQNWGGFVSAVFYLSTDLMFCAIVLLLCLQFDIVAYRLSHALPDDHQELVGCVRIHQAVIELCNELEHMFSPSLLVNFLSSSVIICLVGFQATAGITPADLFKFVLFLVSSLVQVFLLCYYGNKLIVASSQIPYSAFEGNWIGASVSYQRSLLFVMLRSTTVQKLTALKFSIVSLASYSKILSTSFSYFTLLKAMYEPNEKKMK
RUN_DESCRIPTION: Ca2+-imaging of stable HEK293T cell line OR8/OR7
Type: cell-based
Catalogue of IC50 values

Here is how some compounds turned out for IC50.
# COMPOUND, OBSERVED_RESULT
rows = [
    ("CSc1nc(NC(C)C)nc(NC(C)C)n1 [RU-T2]", "< 2 µM"),
    ("CCNc1nc(NC(C)C)nc(SC)n1 [RU-T3]", "2 to 20 µM"),
    ("Cc1nc(NC(C)C)nc(NC(C)C)n1 [RU-T6]", "< 2 µM"),
    ("CC(C)Nc1nc(NC(C)C)nc(C(F)(F)F)n1 [RU-T8]", "2 to 20 µM"),
    ("CCNc1nc(Cl)nc(NC(C)C)n1 [RU-T5]", "< 2 µM"),
    ("CC(C)Nc1nc(Cl)nc(NCc2ccccc2)n1 [RU-T9]", "> 220 µM"),
    ("CC(C)Nc1nc(Cl)nc(N(C)C(C)C)n1 [RU-T7]", "< 2 µM"),
    ("CCNc1nc(NCC)nc(SC)n1 [RU-T4]", "2 to 20 µM"),
]

Would you kindly share the measured IC50 for CC(C)Nc1nc(Cl)nc(NC(C)C)n1 [RU-T1] ?
> 220 µM
